Reference source for all entries: ChEMBL document CHEMBL4052617

system: Escherichia coli; assay: Antibacterial activity against Escherichia coli ATCC 25922 after 18 hrs by Mueller-Hinton broth microdilution method; type: functional; conditions: ATCC 25922, 18 h
Each entry below carries its reported MIC.
Numeric only. Scale: µg/mL

Some solved cases for reference:
COc1cccc(Nc2c3ccccc3[n+](C)c3c2oc2ccccc23)c1.[I-] = 12
Cc1ccc(Nc2c3ccccc3[n+](C)c3c2oc2ccccc23)cc1.[I-] = 12
C[n+]1c2ccccc2c(Nc2ccccc2)c2[nH]c3ccccc3c21.[I-] = 12
Cc1cc(F)ccc1Nc1c2ccccc2[n+](C)c2c1[nH]c1ccccc12.[I-] = 8
Cc1ccc(Nc2c3ccccc3[n+](C)c3c2[nH]c2ccccc23)cc1.[I-] = 8

Query compound follows.
Query: Identify MIC associated with the compound C[n+]1c2ccccc2c(Nc2ccccc2)c2oc3ccccc3c21.[I-]
Result: 16

====

tested on: Enterococcus faecium; experiment: Antibacterial activity against vancomycin-resistant Enterococcus faecium ATCC 700221 after 18 hrs by brain heart infusion broth microdilution method; assay type: functional; details: ATCC 700221, 18 h
assay_readout: MIC (µg/mL)
Field: numeric (µg/mL). Do not append units.

See these solved cases before continuing.
Cc1ccc(Nc2c3ccccc3[n+](C)c3c2[nH]c2ccccc23)cc1.[I-] = 6
Cc1cc(C)cc(Nc2c3ccccc3[n+](C)c3c2[nH]c2ccccc23)c1.[I-] = 8
C[n+]1c2ccccc2c(Nc2ccc(F)cc2)c2oc3ccccc3c21.[I-] = 8

Query: Output measured MIC for this item: C[n+]1c2ccccc2c(Nc2ccc(F)cc2)c2[nH]c3ccccc3c21.[I-]
Result: 8

Query: Tell me its MIC given CCOc1ccc(Nc2c3ccccc3[n+](C)c3c2[nH]c2ccccc23)cc1.[I-] as the entry.
Result: 4

Query: Report MIC for COc1ccccc1Nc1c2ccccc2[n+](C)c2c1oc1ccccc12.[I-]
Result: 8

Query: Please look at this compound and report its MIC: C[n+]1c2ccccc2c(Nc2ccc(F)cc2F)c2[nH]c3ccccc3c21.[I-]
Result: 8

Query: // fetch MIC given entry COc1ccc(Nc2c3ccccc3[n+](C)c3c2[nH]c2ccccc23)cc1.[I-]
Result: 4

====

system: Bacillus subtilis; experiment: Antibacterial activity against Bacillus subtilis 168 after 18 hrs by Mueller-Hinton broth microdilution method; assay type: functional; conditions: subsp. subtilis str. 168, 18 h
assay_readout: MIC (µg/mL)
Report as a plain number; the unit µg/mL is understood.

C[n+]1c2ccccc2c(Nc2ccccc2)c2oc3ccccc3c21.[I-] = 8

Query: Provide MIC, system Bacillus subtilis, entry C[n+]1c2ccccc2c(Nc2ccc(F)cc2)c2oc3ccccc3c21.[I-]
Result: 6

====

system: Escherichia coli; test: Antibacterial activity against Escherichia coli ATCC 25922 after 18 hrs by Mueller-Hinton broth microdilution method; assay type: functional; conditions: ATCC 25922, 18 h
assay_readout: MIC
Could you kindly put the unit after your number?

For orientation, consider the following solved cases.
CCOc1ccc(Nc2c3ccccc3[n+](C)c3c2[nH]c2ccccc23)cc1.[I-] = 6 µg/mL
C[n+]1c2ccccc2c(Nc2ccc(F)cc2F)c2[nH]c3ccccc3c21.[I-] = 8 µg/mL
C[n+]1c2ccccc2c(Nc2ccc(F)cc2F)c2oc3ccccc3c21.[I-] = 12 µg/mL
Cc1ccccc1Nc1c2ccccc2[n+](C)c2c1[nH]c1ccccc12.[I-] = 12 µg/mL
Cc1ccc(Nc2c3ccccc3[n+](C)c3c2[nH]c2ccccc23)cc1C.[I-] = 8 µg/mL
Cc1ccc(Nc2c3ccccc3[n+](C)c3c2[nH]c2ccccc23)cc1F.[I-] = 8 µg/mL

Then there is this molecule:
Query: Supply recorded MIC for COc1cccc(Nc2c3ccccc3[n+](C)c3c2[nH]c2ccccc23)c1.[I-] here.
Result: 8 µg/mL
